- Tested on: MDA-MB-435
- assay-explanation: NCI-60 one-dose screen
- Type: cell-based
- particulars: Homo sapiens; MDA-MB-435, Melanoma panel; single dose 10^−5 M; read-out: Growth inhibition %

{"compound": "Clc1cccc(CNc2c3ccccc3nc3ccccc23)c1 [Compound 12, Acridin-9-yl-(3-chlorobenzyl)-amine]", "inhibition at 10 µM, %": 53.4}
{"compound": "COc1ccc(CNc2c3ccccc3nc3ccccc23)cc1 [Compound 7, Acridin-9-yl-(4-methoxybenzyl)-amine]", "inhibition at 10 µM, %": 59.8}
{"compound": "c1csc(-c2ccc(CNc3c4ccccc4nc4ccccc34)cc2)c1 [Compound 24]", "inhibition at 10 µM, %": 183}
{"compound": "COc1ccc2nc3ccccc3c(NCc3ccc(C)cc3)c2c1 [Compound 26]", "inhibition at 10 µM, %": 57.8}
{"compound": "Cc1ccc2nc3ccccc3c(NCc3ccc(Cl)cc3)c2c1 [Compound 31]", "inhibition at 10 µM, %": 29.7}
{"compound": "COc1ccc(CNc2c3ccccc3nc3ccccc23)cc1OC [Compound 18, Acridin-9-yl-(3,4-dimethoxybenzyl)-amine]", "inhibition at 10 µM, %": 70.6}
{"compound": "Fc1cccc(CNc2c3ccccc3nc3ccccc23)c1 [Compound 9, Acridin-9-yl-(3-fluorobenzyl)-amine]", "inhibition at 10 µM, %": 51.1}
{"compound": "Fc1ccc(CNc2c3ccccc3nc3ccccc23)c(F)c1 [Compound 21, Acridin-9-yl-(2,4-difluorobenzyl)-amine]", "inhibition at 10 µM, %": 33.5}
{"compound": "Clc1ccccc1CNc1c2ccccc2nc2ccccc12 [Compound 11, Acridin-9-yl-(2-chlorobenzyl)-amine]", "inhibition at 10 µM, %": 72.8}
{"compound": "Fc1ccc(CNc2c3ccccc3nc3ccccc23)cc1F [Compound 22, Acridin-9-yl-(3,4-difluorobenzyl)-amine]", "inhibition at 10 µM, %": 50.8}
{"compound": "Clc1ccc(CNc2c3ccccc3nc3ccccc23)cc1 [Compound 13, Acridin-9-yl-(4-chlorobenzyl)-amine]", "inhibition at 10 µM, %": 39.3}
{"compound": "Fc1ccc(CNc2c3ccccc3nc3ccccc23)cc1 [Compound 10, Acridin-9-yl-(4-fluorobenzyl)-amine]", "inhibition at 10 µM, %": 65.2}
{"compound": "Cc1ccc(CNc2c3ccccc3nc3ccccc23)cc1 [Compound 4, Acridin-9-yl-(4-methylbenzyl)-amine]", "inhibition at 10 µM, %": 68.8}
{"compound": "Fc1cccc(CNc2c3ccccc3nc3ccccc23)c1F [Compound 20, Acridin-9-yl-(2,3-difluorobenzyl)-amine]", "inhibition at 10 µM, %": 12.7}
{"compound": "COc1cccc(CNc2c3ccccc3nc3ccccc23)c1OC [Compound 16, Acridin-9-yl-(2,3-dimethoxybenzyl)-amine]", "inhibition at 10 µM, %": 53.7}

====

- Test system: HCT-116
- assay-explanation: MTT cell proliferation assay, HCT-116
- particulars: 10 µM, 72 h MTT, means ± SD
# Lookup of reported % Inhibition at 10 µM keyed by entry

{"compound": "Fc1cccc(CNc2c3ccccc3nc3ccccc23)c1", "% Inhibition at 10 µM [%]": 57.06}
{"compound": "COc1ccccc1CNc1c2ccccc2nc2ccccc12", "% Inhibition at 10 µM [%]": 63.71}
{"compound": "N.N.[Cl][Pt][Cl] [cisplatin, reference compound]", "% Inhibition at 10 µM [%]": 83.00}
{"compound": "c1coc(CNc2c3ccccc3nc3ccccc23)c1", "% Inhibition at 10 µM [%]": 58.83}

====

# Lookup of reported inhibition at 10 µM keyed by entry
- Test system: A498
- assay-explanation: NCI-60 one-dose screen
- Format: cell-based
- particulars: Homo sapiens; A498, Renal Cancer panel; single dose 10^−5 M; read-out: Growth inhibition %
assay-metric: inhibition at 10 µM (%)

{"compound": "c1ccc(CCNc2c3ccccc3nc3ccccc23)cc1 [Compound 23, Acridin-9-yl-phenethyl-amine]", "assay-metric": "inhibition at 10 µM", "reported-value": 105}
{"compound": "Cc1ccc2nc3ccccc3c(NCc3ccc(Cl)cc3)c2c1 [Compound 31]", "assay-metric": "inhibition at 10 µM", "reported-value": 87}
{"compound": "Cc1ccc2nc3ccccc3c(NCc3ccccc3)c2c1 [Compound 30, Benzyl-(2-methylacridin-9-yl)-amine]", "assay-metric": "inhibition at 10 µM", "reported-value": 88.6}
{"compound": "Cc1cccc(CNc2c3ccccc3nc3ccccc23)c1 [Compound 3, Acridin-9-yl-(3-methylbenzyl)-amine]", "assay-metric": "inhibition at 10 µM", "reported-value": 102}
{"compound": "COc1ccc2nc3ccccc3c(NCc3ccc(C)cc3)c2c1 [Compound 26]", "assay-metric": "inhibition at 10 µM", "reported-value": 102}
{"compound": "COc1cccc(CNc2c3ccccc3nc3ccccc23)c1OC [Compound 16, Acridin-9-yl-(2,3-dimethoxybenzyl)-amine]", "assay-metric": "inhibition at 10 µM", "reported-value": 104}
{"compound": "COc1ccc(CNc2c3ccccc3nc3ccccc23)c(OC)c1 [Compound 17, Acridin-9-yl-(2,4-dimethoxybenzyl)-amine]", "assay-metric": "inhibition at 10 µM", "reported-value": 111}
{"compound": "COc1cccc(CNc2c3ccccc3nc3ccccc23)c1 [Compound 6, Acridin-9-yl-(3-methoxybenzyl)-amine]", "assay-metric": "inhibition at 10 µM", "reported-value": 96.3}
{"compound": "COc1ccc(CNc2c3ccccc3nc3ccccc23)cc1F [Compound 19]", "assay-metric": "inhibition at 10 µM", "reported-value": 106}
{"compound": "c1coc(CNc2c3ccccc3nc3ccccc23)c1 [Compound 14, Acridin-9-yl-furan-2-ylmethyl-amine]", "assay-metric": "inhibition at 10 µM", "reported-value": 79.9}
{"compound": "Clc1cccc(CNc2c3ccccc3nc3ccccc23)c1 [Compound 12, Acridin-9-yl-(3-chlorobenzyl)-amine]", "assay-metric": "inhibition at 10 µM", "reported-value": 103}
{"compound": "c1ccc(CNc2c3ccccc3nc3ccccc23)cc1 [Compound 1, Acridin-9-yl-benzyl-amine]", "assay-metric": "inhibition at 10 µM", "reported-value": 83.4}
{"compound": "Fc1ccc(CNc2c3ccccc3nc3ccccc23)cc1 [Compound 10, Acridin-9-yl-(4-fluorobenzyl)-amine]", "assay-metric": "inhibition at 10 µM", "reported-value": 102}
{"compound": "Clc1ccccc1CNc1c2ccccc2nc2ccccc12 [Compound 11, Acridin-9-yl-(2-chlorobenzyl)-amine]", "assay-metric": "inhibition at 10 µM", "reported-value": 106}
{"compound": "COc1ccccc1CNc1c2ccccc2nc2ccccc12 [Compound 5, Acridin-9-yl-(2-methoxybenzyl)-amine]", "assay-metric": "inhibition at 10 µM", "reported-value": 86.7}

====

- Tested on: T-47D
- assay-explanation: NCI-60 one-dose screen
- Assay type: cell-based
- particulars: Homo sapiens, T47D, Breast Cancer panel, single dose 10^−5 M, read-out: Growth inhibition %
# Lookup of reported inhibition at 10 µM keyed by entry

{"smiles-str": "c1ccc(CNc2c3ccccc3nc3ccccc23)cc1", "inhibition at 10 µM": "62.2%"}
{"smiles-str": "Cc1ccc(CNc2c3ccccc3nc3ccccc23)cc1", "inhibition at 10 µM": "71.9%"}
{"smiles-str": "COc1cccc(CNc2c3ccccc3nc3ccccc23)c1", "inhibition at 10 µM": "54.1%"}
{"smiles-str": "COc1ccc2nc3ccccc3c(NCc3ccc(Cl)cc3)c2c1", "inhibition at 10 µM": "50.7%"}
{"smiles-str": "Cc1ccc2nc3ccccc3c(NCc3ccccc3)c2c1", "inhibition at 10 µM": "36.4%"}
{"smiles-str": "COc1ccc(CNc2c3ccccc3nc3ccc(OC)cc23)cc1", "inhibition at 10 µM": "65.8%"}
{"smiles-str": "Fc1ccc(CNc2c3ccccc3nc3ccccc23)c(F)c1", "inhibition at 10 µM": "52.6%"}
{"smiles-str": "COc1ccc(CNc2c3ccccc3nc3ccccc23)cc1F", "inhibition at 10 µM": "65%"}

====

- System: MOLT-4
- assay-explanation: NCI-60 one-dose screen
- Type: cell-based
- particulars: Homo sapiens; MOLT-4, Leukemia panel; single dose 10^−5 M; read-out: Growth inhibition %
Lab note: anything with inhibition at 10 µM at or over 90% counts as met; the rest go in not met.

{"smiles-str": "Fc1ccccc1CNc1c2ccccc2nc2ccccc12", "target-desc": "MOLT-4", "answer-label": "not met"}
{"smiles-str": "COc1ccc(CNc2c3ccccc3nc3ccc(OC)cc23)cc1", "target-desc": "MOLT-4", "answer-label": "met"}
{"smiles-str": "Cc1ccc2nc3ccccc3c(NCc3ccc(Cl)cc3)c2c1", "target-desc": "MOLT-4", "answer-label": "met"}
{"smiles-str": "COc1cccc(CNc2c3ccccc3nc3ccccc23)c1", "target-desc": "MOLT-4", "answer-label": "met"}
{"smiles-str": "c1ccc(CCNc2c3ccccc3nc3ccccc23)cc1", "target-desc": "MOLT-4", "answer-label": "not met"}
{"smiles-str": "Fc1ccc(CNc2c3ccccc3nc3ccccc23)c(F)c1", "target-desc": "MOLT-4", "answer-label": "not met"}
{"smiles-str": "Fc1cccc(CNc2c3ccccc3nc3ccccc23)c1F", "target-desc": "MOLT-4", "answer-label": "not met"}
{"smiles-str": "COc1ccc(CNc2c3ccccc3nc3ccccc23)c(OC)c1", "target-desc": "MOLT-4", "answer-label": "not met"}
{"smiles-str": "Cc1cccc(CNc2c3ccccc3nc3ccccc23)c1", "target-desc": "MOLT-4", "answer-label": "met"}
{"smiles-str": "c1ccc(CNc2c3ccccc3nc3ccccc23)cc1", "target-desc": "MOLT-4", "answer-label": "not met"}
{"smiles-str": "COc1ccc2nc3ccccc3c(NCc3ccc(F)cc3)c2c1", "target-desc": "MOLT-4", "answer-label": "met"}
